tested on: SNB-78 CNS; assay: NCI tumour cell line growth inhibition, 48 h
compounds and their reported TGI
metric: TGI

{"columns": ["compound", "tgt", "endpoint-result"],
 "data": [
  ["O=C(Cc1nc2ccccc2c(=O)n1-c1ccccc1Cl)c1ccncc1", "SNB-78 CNS", "> 100 µM"],
  ["CN(C(=O)C12C3C4C5C3C1(C(=O)C13C6C7C8C6C1C8C73)C5C42)C(C)(C)C (centres undefined)", "SNB-78 CNS", "> 50 µM"],
  ["COc1ccc(C(=O)O[C@H]2[C@@H]3C=CO[C@@H](OC4OC(CO)C(O)C(O)C4O)[C@@H]3[C@@]3(CO)O[C@@H]23)cc1O (some centres undefined)", "SNB-78 CNS", "> 100 µM"],
  ["COC12CCC(=O)C=C1c1ccccc1N2C(C)=O (centres undefined)", "SNB-78 CNS", "> 100 µM"]
]}
